Where do these numbers come from? They come from ChEMBL document CHEMBL4364243.

Test system: Escherichia coli
METHOD: Potentiation of clarithromycin-induced antibacterial activity against Escherichia coli ATCC 25922 assessed as clarithromycin MIC at 12.5 ug/ml incubated for 24 hrs by microtiter plate reader analysis (reference value: 64 microg/ml)
Assay type: functional
PROTOCOL CONDITIONS: ATCC 25922, 24 h
Consider the cut-off 30 µg/mL. If the recorded MIC is strictly smaller, the label is yes (1); if not, the label is no (0).

Would you please look over these solved cases?
CN1CCN(C(CCc2ccccc2)CCc2ccccc2)CC1
no (0)
NCC[C@H](N)CNC(CCc1ccccc1)CCc1ccccc1
yes (1)
NCC[C@H](N)CCNC(CCc1ccccc1)CCc1ccccc1
yes (1)
CN(C(=O)[C@@H](N)CCCN)C(CCc1ccccc1)CCc1ccccc1
no (0)
CN(C)CCC[C@H](N)C(=O)NC(CCc1ccccc1)CCc1ccccc1
no (0)

Strictly below 30 µg/mL: is that where MIC of NCCC[C@@H](N)C(=O)NC(CCc1ccccc1)CCc1ccccc1 sits? no (0)

Strictly below 30 µg/mL: is that where MIC of NCC[C@H](N)CC(=O)NC(CCc1ccccc1)CCc1ccccc1 sits? yes (1)

Strictly below 30 µg/mL: is that where MIC of CNCCC[C@H](N)C(=O)NC(CCc1ccccc1)CCc1ccccc1 sits? no (0)

Strictly below 30 µg/mL: is that where MIC of CN(C(=O)[C@@H](N)CCCN)C(Cc1ccccc1)Cc1ccccc1 sits? no (0)

Strictly below 30 µg/mL: is that where MIC of NCCC[C@H](N)C(=O)NC(c1ccccc1)c1ccccc1 sits? no (0)

* * *

System: Escherichia coli
METHOD: Potentiation of clarithromycin-induced antibacterial activity against Escherichia coli ATCC 25922 assessed as clarithromycin MIC at 12.5 ug/ml incubated for 24 hrs by microtiter plate reader analysis (reference value: 64 microg/ml)
Format: functional
PROTOCOL CONDITIONS: ATCC 25922, 24 h
Overview of recorded log10(MIC) for various compounds
Values reflect log10 of reported MIC (µg/mL).

NC[C@@H](N)CCC(=O)NC(CCc1ccccc1)CCc1ccccc1
1.51
N=C(N)NCCC[C@H](N)C(=O)NC(CCc1ccccc1)CCc1ccccc1
1.51
NCC[C@H](N)C(=O)NC(CCc1ccccc1)CCc1ccccc1
1.51
COc1ccc(CN2CCN(C(CCc3ccccc3)CCc3ccccc3)CC2)cc1
1.81
NC[C@@H](N)CC(=O)NC(CCc1ccccc1)CCc1ccccc1
1.81
NCCC[C@H](N)C(=O)NC(CCc1ccccc1)CCc1ccccc1
1.20

Answer briefly: log10(MIC) recorded on Escherichia coli for NC[C@@H](N)CCNC(CCc1ccccc1)CCc1ccccc1 1.51

Answer briefly: log10(MIC) recorded on Escherichia coli for NC[C@@H](N)CCCNC(CCc1ccccc1)CCc1ccccc1 0.60

Answer briefly: log10(MIC) recorded on Escherichia coli for NCCC[C@H](N)CNC(CCc1ccccc1)CCc1ccccc1 0.90

Answer briefly: log10(MIC) recorded on Escherichia coli for NCCC[C@H](N)C(=O)NC(Cc1ccccc1)Cc1ccccc1 1.51

Answer briefly: log10(MIC) recorded on Escherichia coli for CN(C(=O)[C@@H](N)CCCN)C(c1ccccc1)c1ccccc1 1.51
